- Test system: level of blood sugar
- ASSAY NAME: Anti-hyperglycemia activity (reduction of blood sugar level)
- Format: in vivo, rat (Wistar, streptozotocin)
- TEST PARAMETERS: oral, 300 mg/kg, 3 hrs.
MEASURED ATTRIBUTE: Reduced level of blood sugar after 3 hrs. (mg/dL)

compound="O=C(Oc1ccccc1)c1ccc(NC2OC[C@@H](O)[C@H](O)[C@H]2O)cc1 (stereo partly drawn) [Compound 8, phenyl p-aminobenzoate-N-D-xyloside]" reported_measurement=106
compound="O=C(OCc1ccccc1)c1ccc(NC2(CO)OC[C@@H](O)[C@@H](O)[C@@H]2O)cc1 (stereo partly drawn) [Compound 15, benzyl p-aminobenzoate-N-D-fructoside]" reported_measurement=72
compound="NC(=O)c1cccc(NC2O[C@H](CO)[C@@H](O[C@@H]3O[C@H](CO)[C@@H](O)[C@H](O)[C@H]3O)[C@H](O)[C@H]2O)c1 (stereo partly drawn) [Compound 2, m-aminobenzoic acid amide-N-cellobioside]" reported_measurement=85
